Molecular target: T1, His-tagged human TIGIT (human, UniProt Q495A1 22-141)
T1 construct: SPR analyte; also called human TIGIT protein; not shown: His tag
T1 sequence: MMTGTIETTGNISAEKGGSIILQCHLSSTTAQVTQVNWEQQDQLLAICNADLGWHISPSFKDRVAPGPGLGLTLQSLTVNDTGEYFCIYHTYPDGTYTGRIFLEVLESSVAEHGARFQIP
Test: SPR experiment 3, IgG from HEK293 supernatant captured

Binder	koff (s⁻¹)
reshaped TIGIT-3 antibody 3VH3 + 3VL1.M4 (antibody, V domains shown, Full-length IgG, tested as HEK293 supernatant) VH: EVQLVESGGGLVQPGGSLRLSCAASGFTFSSYGMSWVRQAPGKGLELVATIKSDGGSTNLPDSVKGRFTISRDNSKNTLYLQMNSLRAEDTAVYYCVRGYFDYWGQGTTVTVSS VL: DIQMTQSPSSLSASVGDRVTITCKASQDVKTAVAWYQQKPGKVPKLLIYWASTRQSGVPSRFSGSGSGTDFTLTISSLQPEDVATYYCQQYYSTPYTFGGGTKVEIK	0.012
